Data provenance: ChEMBL document CHEMBL1138834

biological target: Histone deacetylase; test: Inhibition of histone deacetylase (HDAC) activity in DU-145 nuclear extracts; format: protein assay, Homo sapiens
quantity-name: IC50 (nM)

Problem: Item `CCCC(=O)Nc1ccc(CCC(=O)NO)cc1` has what recorded IC50?
Solution: 1600

Problem: Given the entry `CCCC(CCC)C(=O)Nc1ccc(CCC(=O)NO)cc1` , report its measured IC50.
Solution: 5000

Problem: Query: IC50; subject: `Nc1ccccc1NC(=O)c1ccc(CNC(=O)Cc2ccccc2)cc1`
Solution: 5200

Problem: State the recorded IC50 for this entry: `CCCC(=O)NCc1ccc(C(=O)Nc2ccccc2N)cc1`
Solution: 6000

Problem: Looking for the measured IC50 of `O=C(CCCc1ccccc1)NCc1ccc(C(=O)NO)cc1` , can you help?
Solution: 1200

P: O=C(CCc1ccc(NC(=O)Cc2ccccc2)cc1)NO
Q: CCCC(=O)Nc1ccc(C(=O)NO)cc1
Problem: For this pair, P and Q , which shows a numerically higher IC50? The response must carry the label of the picked entry.
Solution: Q

I: O=C(CCCc1ccccc1)Nc1ccc(C(=O)NO)cc1
II: Nc1ccccc1NC(=O)c1ccc(CNC(=O)CCCc2ccccc2)cc1
Problem: Input pair: I , II . Output: entry with lower IC50. Please indicate the selected item by its label.
Solution: I
(I: 44 nM, II: 4300 nM)

a: O=C(Cc1ccccc1)NCc1ccc(C(=O)NO)cc1
b: CCCC(CCC)C(=O)Nc1ccc(CC(=O)Nc2ccccc2N)cc1
Problem: Given a and given b , which shows the smaller recorded IC50? Response format: the label of the selected entry.
Solution: a
(a: 2500 nM, b: 80000 nM)

A: O=C(CCc1ccc(NC(=O)CCCc2ccccc2)cc1)NO
B: O=C(Cc1ccccc1)Nc1ccc(C(=O)NO)cc1
Problem: Field: entry with larger IC50 (options A / B ). Lab note: record the label of whichever item you select.
Solution: A
(A: 530 nM, B: 110 nM)
